Target: Bek (Homo sapiens, UniProt P21802)
Sequence (P21802 431-767 limits assumed): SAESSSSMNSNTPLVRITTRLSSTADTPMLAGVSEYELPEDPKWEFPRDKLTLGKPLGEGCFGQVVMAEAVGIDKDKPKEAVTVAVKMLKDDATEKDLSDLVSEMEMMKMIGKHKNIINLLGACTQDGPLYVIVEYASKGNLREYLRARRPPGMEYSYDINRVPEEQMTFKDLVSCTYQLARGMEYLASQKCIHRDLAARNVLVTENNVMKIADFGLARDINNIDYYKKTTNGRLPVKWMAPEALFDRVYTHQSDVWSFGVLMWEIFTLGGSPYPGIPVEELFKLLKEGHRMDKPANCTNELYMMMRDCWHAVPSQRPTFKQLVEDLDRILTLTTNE
Assay: Inhibitory activity against Bek-autophosphorylation using ELISA method in OCUM-2MD3 cells
Format: cell-based
Details: 1 hr with compound, read-out: IC50 (concentration necessary for inhibiting 50% of Bek-phosphorylation)
pIC50: −log10 of the molar value.
We begin with a simple list: items and their reported pIC50.
TEST_READOUT: pIC50

compound="COc1cc2nccc(Oc3ccc(NC(=O)NC4CC(C)CC(C)(C)C4)c(Cl)c3)c2cc1OC (stereo not drawn) [Compound 107]" test_readout=pIC50 measured_result="> 8.00"
compound="COc1cc2c(Oc3ccc(NC(=O)NCCC(C)(C)C)c(F)c3)ccnc2cc1OCCN1CCOCC1 [Compound 87]" test_readout=pIC50 measured_result="> 8.00"
compound="COc1cc2nccc(Oc3c(Cl)cc(NC(=O)NCCC(C)(C)C)cc3Cl)c2cc1OC [Compound 140]" test_readout=pIC50 measured_result=6.76
compound="COc1cc2c(Oc3ccc(NC(=O)NCCC(C)(C)C)c(Cl)c3)ccnc2cc1OCCCCN1CC(C)OC(C)C1 (stereo not drawn) [Compound 321]" test_readout=pIC50 measured_result=7.60
compound="COc1cc2c(Oc3ccc(NC(=O)NCCC(C)(C)C)c(F)c3)ccnc2cc1OCCN1CC(C)OC(C)C1 (stereo not drawn) [Compound 97]" test_readout=pIC50 measured_result="> 8.00"
compound="COc1cc2c(Oc3ccc(NC(=O)NCCC(C)(C)C)cc3)ccnc2cc1OCCN1CCC(CCO)CC1 [Compound 219]" test_readout=pIC50 measured_result="> 8.00"
